These entries and their values trace back to ChEMBL document CHEMBL2311287.

Biological target: Thioredoxin (Homo sapiens)
Sequence (P10599 whole entry): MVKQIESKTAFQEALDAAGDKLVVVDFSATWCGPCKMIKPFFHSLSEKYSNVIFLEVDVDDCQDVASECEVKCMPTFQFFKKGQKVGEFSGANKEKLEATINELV
Assay: Inhibition of human recombinant thioredoxin-mediated TG2 activation expressed in T84 cells assessed as blockade of 5-biotinamidopentylamine incorporation after 3 hrs by streptavidin-HRP/TMB absorbance assay
attribute.measured: pIC50
# pIC50 is unitless: minus log10 of the molar concentration; print number only

Sure, the documented pIC50 for CCC(C)SSc1ncc[nH]1 (stereo unspecified) is 5.68
